# TESTED_SYSTEM: porcine pepsin (Sus scrofa)
# Sequence (P00791 60-385): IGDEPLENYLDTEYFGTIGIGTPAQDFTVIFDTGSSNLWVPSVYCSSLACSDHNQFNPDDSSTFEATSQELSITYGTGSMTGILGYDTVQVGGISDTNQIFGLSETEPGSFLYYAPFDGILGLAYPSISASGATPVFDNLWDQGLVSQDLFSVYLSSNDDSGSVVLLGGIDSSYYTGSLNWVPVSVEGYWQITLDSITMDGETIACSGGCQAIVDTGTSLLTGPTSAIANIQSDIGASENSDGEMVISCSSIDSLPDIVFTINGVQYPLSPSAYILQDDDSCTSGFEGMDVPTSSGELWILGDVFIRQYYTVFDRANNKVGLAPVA
pKd: −log10 of the molar value.
As shown below, each of these compounds has a reported pKd value.
PROPERTY: pKd

>>> reported_value("CC(C)CN(C[C@@H](O)[C@H](Cc1ccccc1)NC(=O)O[C@H]1CCOC1)S(=O)(=O)c1ccc(N)cc1 [APV, Amprenavir]")
6.74
>>> reported_value("CC(C)CN(C[C@@H](O)[C@H](Cc1ccccc1)NC(=O)O[C@H]1CO[C@H]2OCC[C@H]21)S(=O)(=O)c1ccc(N)cc1 [DRV, Darunavir]")
5.81

###

Reported Tm PRD29N values follow for various compounds
# TESTED_SYSTEM: PRD29N (HIV-1 protease D29N mutant) (Human immunodeficiency virus type 1, UniProt P03367, D529N, form not given)
# CONDITION_DETAILS: inhibitor 28 μM, pH 4.8-5.0; unliganded PRD29N 59.0
PROPERTY: Tm PRD29N (°C)

>>> reported_value("CC(C)CN(C[C@@H](O)[C@H](Cc1ccccc1)NC(=O)O[C@H]1CCOC1)S(=O)(=O)c1ccc(N)cc1 [APV, Amprenavir]")
67.5
>>> reported_value("CC(C)c1nc(CN(C)C(=O)N[C@H](C(=O)N[C@@H](Cc2ccccc2)C[C@H](O)[C@H](Cc2ccccc2)NC(=O)OCc2cncs2)C(C)C)cs1 [RTV, Ritonavir]")
66.1
>>> reported_value("CC(C)CN(C[C@@H](O)[C@H](Cc1ccccc1)NC(=O)O[C@H]1CO[C@H]2OCC[C@H]21)S(=O)(=O)c1ccc(N)cc1 [DRV, Darunavir]")
72.7

###

# TESTED_SYSTEM: PRD29N (HIV-1 protease D29N mutant) (Human immunodeficiency virus type 1, UniProt P03367, D529N, form not given)
# CONDITION_DETAILS: inhibitor 28 μM, pH 4.8-5.0; unliganded PRD29N 59.0
This listing pairs compounds with measured Tm PRD29N.
PROPERTY: Tm PRD29N (°C)

>>> reported_value("CC(C)(C)NC(=O)[C@@H]1C[C@@H]2CCCC[C@@H]2CN1C[C@@H](O)[C@H](Cc1ccccc1)NC(=O)[C@H](CC(N)=O)NC(=O)c1ccc2ccccc2n1 [SQV, Saquinavir]")
72.3
>>> reported_value("O=C1N(Cc2ccc(CO)cc2)[C@H](Cc2ccccc2)[C@H](O)[C@@H](O)[C@@H](Cc2ccccc2)N1Cc1ccc(CO)cc1 [DMP323]")
69.2
>>> reported_value("COC(=O)N[C@H](C(=O)N[C@@H](Cc1ccccc1)[C@@H](O)CN(Cc1ccc(-c2ccccn2)cc1)NC(=O)[C@@H](NC(=O)OC)C(C)(C)C)C(C)(C)C [ATV, Atazanavir]")
71.7

These data points were gathered from paper PMC2720045.
